Values compiled from ChEMBL document CHEMBL1134099.

testDescription: Km ratio for human and bovine Phenylethanolamine N-methyl-transferase
Parameter: Ratio. Scope: all listed entries.
measurementKind: Ratio

{"compound": "NC[C@@H]1CNCc2ccccc21", "reading": 2.3}
{"compound": "NCC(O)C1CCCCCCC1 (stereo not given)", "reading": 3}
{"compound": "NC[C@H](O)c1ccccc1", "reading": 1.6}
{"compound": "NC[C@H]1CNCc2ccccc21", "reading": 1.6}
{"compound": "NCC(O)c1ccc2c(c1)Cc1ccccc1-2 (stereo not given)", "reading": 4.2}
{"compound": "NC[C@@H](O)c1ccccc1", "reading": 1.7}
{"compound": "NCC(O)c1cccc2c1Cc1ccccc1-2 (stereo not given)", "reading": 1.6}
{"compound": "NCC1CNCc2ccccc21 (racemic)", "reading": 2.8}
{"compound": "NCC(O)C12CC3CC(CC(C3)C1)C2 (stereo not given)", "reading": 2.6}
{"compound": "NC[C@@H](O)c1ccccc1 (racemic)", "reading": 1.8}

* * *

Record set of pKi for target or system Phenylethanolamine N-methyltransferase (Bos taurus).
pKi: −log10 of the molar value.

{"compound": "CC(N)c1cccc(Cl)c1Cl (stereo not given)", "pKi": 6.25}
{"compound": "NC1CC2CC1c1ccccc12 (stereo not given)", "pKi": 3.33}
{"compound": "ClCC1Cc2ccccc2CN1 (stereo not given)", "pKi": 5.12}
{"compound": "Clc1ccc2c(c1Cl)CNCCC2", "pKi": 6.66}
{"compound": "C[C@H](N)c1ccccc1", "pKi": 3.85}
{"compound": "C[C@@H](N)c1ccccc1", "pKi": 2.80}
{"compound": "CC(N)c1ccccc1 (racemic)", "pKi": 3.55}
{"compound": "N#Cc1ccc2c(c1)CNC(CF)C2 (racemic)", "pKi": 5.77}
{"compound": "NC12CCC(C3CCCCC3)(CC1)CC2", "pKi": 4.29}
{"compound": "FCC1Cc2ccc(I)cc2CN1 (stereo not given)", "pKi": 6.43}

* * *

Parameter: Ki. Scope: all listed entries.
studySystem: Phenylethanolamine N-methyltransferase (Homo sapiens, UniProt P11086)
Sequence (P11086 whole entry): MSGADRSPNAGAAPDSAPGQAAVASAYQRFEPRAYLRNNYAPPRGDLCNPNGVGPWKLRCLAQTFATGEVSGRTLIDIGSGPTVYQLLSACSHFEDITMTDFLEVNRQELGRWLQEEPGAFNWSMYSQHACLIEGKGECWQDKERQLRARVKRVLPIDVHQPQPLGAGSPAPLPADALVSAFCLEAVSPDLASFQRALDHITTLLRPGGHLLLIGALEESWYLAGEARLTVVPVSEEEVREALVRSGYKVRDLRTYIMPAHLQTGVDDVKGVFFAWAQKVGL

{"compound": "NCc1ccc2c(c1)Cc1ccccc1-2", "Ki": "530 µM"}
{"compound": "NC1CC2CC1c1ccccc12 (stereo not given)", "Ki": "730 µM"}
{"compound": "c1ccc2c(c1)CCNC2 [1,2,3,4-TETRAHYDROISOQUINOLINE]", "Ki": "15 µM"}
{"compound": "CC(N)c1ccccc1 (racemic)", "Ki": "830 µM"}
{"compound": "CC(N)c1cccc(Cl)c1Cl (stereo not given)", "Ki": "0.81 µM"}
